- method: NS1 protein of Zika virus - qHTS assay to identify small molecule inhibitors in human HEK 293 cells (AID 1347053); also: nearly all actives have a fitted effect of over 55% in size
- condition description: HEK293 ZIKV MR766 infection, NS1 TR-FRET, 24 h; series mostly up to 46.1 µM
Results filed as inconclusive are left out. The source made the active and inactive calls. Calls follow the shape of the dose curve; as a rule, active = well fitted inhibition curve with a large enough effect; inconclusive = small, poorly fitted or top-dose-only effect; inactive = no such curve, though single readings can be large or run the other way.
Answer with one of the outcomes active, inactive

CCOc1cc2ncc(C#N)c(Nc3ccc(OCc4ccccn4)c(Cl)c3)c2cc1NC(=O)C=CCN(C)C: inactive

# input I would be grateful if you could indicate the recorded call for `Cc1cc(C(=O)NOCCO)c(Nc2ccc(I)cc2F)n(C)c1=O` .
# output inactive

# input I would be grateful if you could indicate the recorded call for `CCN(C(=O)c1c(O)c2c(Cl)cccc2n(C)c1=O)c1ccccc1` .
# output inactive

# input I would be grateful if you could indicate the recorded call for `NC[C@H]1O[C@H](O[C@H]2[C@@H](O)[C@@H](O[C@H]3O[C@H](CO)[C@@H](O)[C@H](N)[C@@H]3O)[C@H](N)C[C@@H]2N)[C@H](N)C[C@H]1O` .
# output inactive

# input I would be grateful if you could indicate the recorded call for CN(N=O)C(=O)N[C@H]1C(O)OC(CO)[C@@H](O)[C@H]1O (some centres not stated) .
# output inactive

# input I would be grateful if you could indicate the recorded call for CC(=O)NC(CS)C(=O)O (configuration not stated) .
# output inactive

# input I would be grateful if you could indicate the recorded call for `CCc1cnn2c(NCc3ccc[n+]([O-])c3)cc(N3CCCC[C@@H]3CCO)nc12` .
# output active

# input I would be grateful if you could indicate the recorded call for `CN[C@H]1[C@@H](O)[C@@H]2O[C@@H]3O[C@H](C)CC(=O)[C@]3(O)O[C@@H]2[C@@H](NC)[C@H]1O` .
# output inactive

# input I would be grateful if you could indicate the recorded call for `NC(=O)Nc1sc(-c2ccc(F)cc2)cc1C(N)=O` .
# output inactive

# input I would be grateful if you could indicate the recorded call for `CCc1cc(C(C)=NOCc2ccc(C3CCCCC3)c(C(F)(F)F)c2)ccc1CN1CC(C(=O)O)C1` .
# output inactive

# input I would be grateful if you could indicate the recorded call for `CC(C)n1cnc2c(NCCc3ccc(O)cc3)nc(-c3csc4ccccc34)nc21` .
# output active

# input I would be grateful if you could indicate the recorded call for CCCCCCCN(CC)CCCC(O)c1ccc(NS(C)(=O)=O)cc1 (configuration not stated) .
# output inactive

# input I would be grateful if you could indicate the recorded call for `CCC(C=C[C@@H]1OC(=O)C=C[C@H]1C)=C[C@H](C)CC=CC(C)=C[C@@H](C)C(=O)[C@@H](C)[C@H](O)[C@@H](C)CC(C)=CC(=O)O` .
# output active

# input I would be grateful if you could indicate the recorded call for `CC1(C)[C@H](O[C@H]2O[C@H](C(=O)O)[C@@H](O)[C@H](O)[C@H]2O[C@@H]2O[C@H](C(=O)O)[C@@H](O)[C@H](O)[C@H]2O)CC[C@@]2(C)[C@H]1CC[C@]1(C)[C@H]2C(=O)C=C2[C@H]3C[C@@](C)(C(=O)O)CC[C@]3(C)CC[C@]21C` .
# output inactive

# input I would be grateful if you could indicate the recorded call for `C=C1C(=O)O[C@H]2[C@@H]1CCC(C)=CCC[C@@]1(C)O[C@@H]21` .
# output active

# input I would be grateful if you could indicate the recorded call for `COc1cc(C[C@@H](CO)[C@H](CO)Cc2ccc(O)c(OC)c2)ccc1O` .
# output inactive

# input I would be grateful if you could indicate the recorded call for `C=C1C[C@@]2(O)O[C@@]3(C[C@H]2C(C)C)[C@H](C)CC[C@H]13` .
# output inactive

# input I would be grateful if you could indicate the recorded call for `CN[C@H](CC(C)C)C(=O)N[C@H]1C(=O)N[C@@H](CC(N)=O)C(=O)N[C@@H]2C(=O)N[C@H]3C(=O)N[C@H](C(=O)N[C@H](C(=O)O)c4cc(O)cc(O)c4-c4cc3ccc4O)[C@H](O)c3ccc(c(Cl)c3)Oc3cc2cc(c3O[C@@H]2O[C@H](CO)[C@@H](O)[C@H](O)[C@@H]2O[C@H]2C[C@](C)(N)[C@H](O)[C@H](C)O2)Oc2ccc(cc2Cl)[C@H]1O` .
# output inactive

# input I would be grateful if you could indicate the recorded call for `Cn1cc(-c2cnn3c(N)c(Br)c([C@H]4CCCNC4)nc23)cn1` .
# output active

# input I would be grateful if you could indicate the recorded call for C[C@]12CCC(=O)C=C1[C@@H]1CC1[C@H]1[C@H]3[C@@H]4C[C@H]4[C@@]4(CCC(=O)O4)[C@@]3(C)CC[C@H]12 (some centres not stated) .
# output inactive

# input I would be grateful if you could indicate the recorded call for `CON=C(C(=O)N[C@@H]1C(=O)N2C(C(=O)O)=C(CSC(=O)c3ccco3)CS[C@H]12)c1csc(N)n1` .
# output inactive

# input I would be grateful if you could indicate the recorded call for Cc1ccc(O)c(C(CCN(C(C)C)C(C)C)c2ccccc2)c1 (configuration not stated) .
# output inactive

The measured values listed here are drawn from PubChem BioAssay (NCATS).
